System: Setaria faberi (SETFA)
Assay: Pre-emergence herbicidal activity (B1)
Type: in vivo
Settings: Test 1a, 1000 g/ha, evaluated after 13 days, 5=total damage to plant, 0=no damage to plant
Measured SETFA damage score, listed per entry for reference.
READOUT_KIND: SETFA damage score

[
  {
    "SMILES_RECORD": "Fc1cncc(-c2ccc(NCc3cnco3)c(C(F)(F)F)n2)c1",
    "READOUT_KIND": "SETFA damage score",
    "EXPERIMENTAL_RESULT": 5
  },
  {
    "SMILES_RECORD": "COc1nc(-c2cncc(F)c2)ccc1N",
    "READOUT_KIND": "SETFA damage score",
    "EXPERIMENTAL_RESULT": 1
  },
  {
    "SMILES_RECORD": "Nc1ccc(-c2cncc(Cl)c2)nc1C(F)(F)F",
    "READOUT_KIND": "SETFA damage score",
    "EXPERIMENTAL_RESULT": 5
  },
  {
    "SMILES_RECORD": "CCCNc1ccc(-c2cncc(F)c2)nc1C(F)(F)F",
    "READOUT_KIND": "SETFA damage score",
    "EXPERIMENTAL_RESULT": 4
  },
  {
    "SMILES_RECORD": "Cn1ccc(CNc2ccc(-c3cncc(F)c3)nc2C(F)(F)F)n1",
    "READOUT_KIND": "SETFA damage score",
    "EXPERIMENTAL_RESULT": 5
  },
  {
    "SMILES_RECORD": "Fc1cncc(-c2ccc(N3CCCC3)c(C(F)(F)F)n2)c1",
    "READOUT_KIND": "SETFA damage score",
    "EXPERIMENTAL_RESULT": 4
  },
  {
    "SMILES_RECORD": "CC(C)CCNc1ccc(-c2cncc(F)c2)nc1C(F)(F)F",
    "READOUT_KIND": "SETFA damage score",
    "EXPERIMENTAL_RESULT": 5
  },
  {
    "SMILES_RECORD": "CN1CCN(c2ccc(-c3cncc(F)c3)nc2C(F)(F)F)CC1",
    "READOUT_KIND": "SETFA damage score",
    "EXPERIMENTAL_RESULT": 5
  },
  {
    "SMILES_RECORD": "Cc1nc(-c2cncc(OC(F)F)c2)ccc1N",
    "READOUT_KIND": "SETFA damage score",
    "EXPERIMENTAL_RESULT": 2
  },
  {
    "SMILES_RECORD": "CNc1ccc(-c2cncc(C#N)c2)nc1C(F)(F)F",
    "READOUT_KIND": "SETFA damage score",
    "EXPERIMENTAL_RESULT": 4
  },
  {
    "SMILES_RECORD": "Fc1cncc(-c2ccc(NCc3cscn3)c(C(F)(F)F)n2)c1",
    "READOUT_KIND": "SETFA damage score",
    "EXPERIMENTAL_RESULT": 5
  },
  {
    "SMILES_RECORD": "CN(C)c1ccc(-c2cncc(F)c2)nc1C(F)(F)F",
    "READOUT_KIND": "SETFA damage score",
    "EXPERIMENTAL_RESULT": 5
  },
  {
    "SMILES_RECORD": "Fc1cncc(-c2ccc(NC3CC3)c(C(F)(F)F)n2)c1",
    "READOUT_KIND": "SETFA damage score",
    "EXPERIMENTAL_RESULT": 4
  },
  {
    "SMILES_RECORD": "COC(=O)c1nc(-c2cncc(F)c2)ccc1N",
    "READOUT_KIND": "SETFA damage score",
    "EXPERIMENTAL_RESULT": 2
  },
  {
    "SMILES_RECORD": "N#Cc1nc(-c2cncnc2)ccc1N",
    "READOUT_KIND": "SETFA damage score",
    "EXPERIMENTAL_RESULT": 5
  },
  {
    "SMILES_RECORD": "N#Cc1cncc(-c2ccc(N)c(C(F)(F)F)n2)c1",
    "READOUT_KIND": "SETFA damage score",
    "EXPERIMENTAL_RESULT": 4
  },
  {
    "SMILES_RECORD": "CCCN(CCC)c1ccc(-c2cncc(F)c2)nc1C(F)(F)F",
    "READOUT_KIND": "SETFA damage score",
    "EXPERIMENTAL_RESULT": 4
  },
  {
    "SMILES_RECORD": "CCCCCNc1ccc(-c2cncc(F)c2)nc1C(F)(F)F",
    "READOUT_KIND": "SETFA damage score",
    "EXPERIMENTAL_RESULT": 5
  },
  {
    "SMILES_RECORD": "Fc1cncc(-c2ccc(N3CC(F)(F)C(F)(F)C3)c(C(F)(F)F)n2)c1",
    "READOUT_KIND": "SETFA damage score",
    "EXPERIMENTAL_RESULT": 5
  },
  {
    "SMILES_RECORD": "Fc1cncc(-c2ccc(N3CCC3)c(C(F)(F)F)n2)c1",
    "READOUT_KIND": "SETFA damage score",
    "EXPERIMENTAL_RESULT": 5
  }
]

* * *

Some compounds, each annotated with its measured AVEFA damage score.
Test system: Avena fatua (AVEFA)
Assay: Post-emergence herbicidal activity (B2)
Type: in vivo
Details: Test B2a, 1000 g/ha, evaluated after 13 days, 5=total damage to plant, 0=no damage to plant

[
  {
    "COMPOUND": "CN1CCN(c2ccc(-c3cncc(F)c3)nc2C(F)(F)F)CC1",
    "TARGET_SYSTEM": "Avena fatua (AVEFA)",
    "AVEFA damage score": 3
  },
  {
    "COMPOUND": "Fc1cncc(-c2ccc(NCC3CCC3)c(C(F)(F)F)n2)c1",
    "TARGET_SYSTEM": "Avena fatua (AVEFA)",
    "AVEFA damage score": 4
  },
  {
    "COMPOUND": "Fc1cncc(-c2ccc(NCc3cnco3)c(C(F)(F)F)n2)c1",
    "TARGET_SYSTEM": "Avena fatua (AVEFA)",
    "AVEFA damage score": 3
  },
  {
    "COMPOUND": "COc1nc(-c2cncc(F)c2)ccc1N",
    "TARGET_SYSTEM": "Avena fatua (AVEFA)",
    "AVEFA damage score": 1
  },
  {
    "COMPOUND": "CCCCCNc1ccc(-c2cncc(F)c2)nc1C(F)(F)F",
    "TARGET_SYSTEM": "Avena fatua (AVEFA)",
    "AVEFA damage score": 3
  },
  {
    "COMPOUND": "CC(C)CCNc1ccc(-c2cncc(F)c2)nc1C(F)(F)F",
    "TARGET_SYSTEM": "Avena fatua (AVEFA)",
    "AVEFA damage score": 3
  },
  {
    "COMPOUND": "Fc1cncc(-c2ccc(NCc3nccs3)c(C(F)(F)F)n2)c1",
    "TARGET_SYSTEM": "Avena fatua (AVEFA)",
    "AVEFA damage score": 4
  },
  {
    "COMPOUND": "Nc1ccc(-c2cncc(F)c2)nc1-c1ccccc1",
    "TARGET_SYSTEM": "Avena fatua (AVEFA)",
    "AVEFA damage score": 0
  },
  {
    "COMPOUND": "Fc1cncc(-c2ccc(N3CC(F)(F)C(F)(F)C3)c(C(F)(F)F)n2)c1",
    "TARGET_SYSTEM": "Avena fatua (AVEFA)",
    "AVEFA damage score": 3
  },
  {
    "COMPOUND": "Fc1cncc(-c2ccc(NCCc3ccccc3)c(C(F)(F)F)n2)c1",
    "TARGET_SYSTEM": "Avena fatua (AVEFA)",
    "AVEFA damage score": 3
  },
  {
    "COMPOUND": "N#Cc1cncc(-c2ccc(N)c(C(F)(F)F)n2)c1",
    "TARGET_SYSTEM": "Avena fatua (AVEFA)",
    "AVEFA damage score": 3
  },
  {
    "COMPOUND": "CCCNc1ccc(-c2cncc(F)c2)nc1C(F)(F)F",
    "TARGET_SYSTEM": "Avena fatua (AVEFA)",
    "AVEFA damage score": 2
  },
  {
    "COMPOUND": "CCCN(CCC)c1ccc(-c2cncc(F)c2)nc1C(F)(F)F",
    "TARGET_SYSTEM": "Avena fatua (AVEFA)",
    "AVEFA damage score": 3
  },
  {
    "COMPOUND": "Fc1cncc(-c2ccc(N3CCCC3C(F)(F)F)c(C(F)(F)F)n2)c1 (stereo not shown)",
    "TARGET_SYSTEM": "Avena fatua (AVEFA)",
    "AVEFA damage score": 1
  },
  {
    "COMPOUND": "Fc1cncc(-c2ccc(N3CCCC3)c(C(F)(F)F)n2)c1",
    "TARGET_SYSTEM": "Avena fatua (AVEFA)",
    "AVEFA damage score": 3
  },
  {
    "COMPOUND": "Fc1cncc(-c2ccc(NC3CCCCC3)c(C(F)(F)F)n2)c1",
    "TARGET_SYSTEM": "Avena fatua (AVEFA)",
    "AVEFA damage score": 2
  },
  {
    "COMPOUND": "Fc1cncc(-c2ccc(NC3CC3)c(C(F)(F)F)n2)c1",
    "TARGET_SYSTEM": "Avena fatua (AVEFA)",
    "AVEFA damage score": 3
  },
  {
    "COMPOUND": "CNc1ccc(-c2cncc(C#N)c2)nc1C(F)(F)F",
    "TARGET_SYSTEM": "Avena fatua (AVEFA)",
    "AVEFA damage score": 3
  },
  {
    "COMPOUND": "Cc1nc(-c2cncc(OC(F)F)c2)ccc1N",
    "TARGET_SYSTEM": "Avena fatua (AVEFA)",
    "AVEFA damage score": 3
  },
  {
    "COMPOUND": "Cn1ccc(CNc2ccc(-c3cncc(F)c3)nc2C(F)(F)F)n1",
    "TARGET_SYSTEM": "Avena fatua (AVEFA)",
    "AVEFA damage score": 3
  },
  {
    "COMPOUND": "CN(C)c1ccc(-c2cncc(F)c2)nc1C(F)(F)F",
    "TARGET_SYSTEM": "Avena fatua (AVEFA)",
    "AVEFA damage score": 4
  },
  {
    "COMPOUND": "Fc1cncc(-c2ccc(N3CCOCC3)c(C(F)(F)F)n2)c1",
    "TARGET_SYSTEM": "Avena fatua (AVEFA)",
    "AVEFA damage score": 2
  }
]
